- TEST_PROTOCOL: Metabolic stability in rat liver microsomes
- Format: ADME, Microsome
OBSERVABLE: Stability (%)
Give the value, in units of %, as a plain number.

Stability measured on C[C@@H](Nc1nc2c(cnn2C2CCCC2)c(=O)[nH]1)C(=O)Nc1ccc2nccn2c1 = 40.8

Stability measured on C[C@@H](Nc1nc2c(cnn2C2CCCC2)c(=O)[nH]1)C(=O)Nc1ccc2[nH]cnc2c1 = 54.7

Stability measured on C[C@@H](Nc1nc2c(cnn2C2CCCC2)c(=O)[nH]1)C(=O)Nc1ccc(F)nc1 = 41

Stability measured on C[C@@H](Nc1nc2c(cnn2C2CCCC2)c(=O)[nH]1)C(=O)Nc1ccc2[nH]ncc2c1 = 47.8
